measured-target: Sodium/nucleoside cotransporter 2 (Homo sapiens)
Sequence (O43868 whole entry): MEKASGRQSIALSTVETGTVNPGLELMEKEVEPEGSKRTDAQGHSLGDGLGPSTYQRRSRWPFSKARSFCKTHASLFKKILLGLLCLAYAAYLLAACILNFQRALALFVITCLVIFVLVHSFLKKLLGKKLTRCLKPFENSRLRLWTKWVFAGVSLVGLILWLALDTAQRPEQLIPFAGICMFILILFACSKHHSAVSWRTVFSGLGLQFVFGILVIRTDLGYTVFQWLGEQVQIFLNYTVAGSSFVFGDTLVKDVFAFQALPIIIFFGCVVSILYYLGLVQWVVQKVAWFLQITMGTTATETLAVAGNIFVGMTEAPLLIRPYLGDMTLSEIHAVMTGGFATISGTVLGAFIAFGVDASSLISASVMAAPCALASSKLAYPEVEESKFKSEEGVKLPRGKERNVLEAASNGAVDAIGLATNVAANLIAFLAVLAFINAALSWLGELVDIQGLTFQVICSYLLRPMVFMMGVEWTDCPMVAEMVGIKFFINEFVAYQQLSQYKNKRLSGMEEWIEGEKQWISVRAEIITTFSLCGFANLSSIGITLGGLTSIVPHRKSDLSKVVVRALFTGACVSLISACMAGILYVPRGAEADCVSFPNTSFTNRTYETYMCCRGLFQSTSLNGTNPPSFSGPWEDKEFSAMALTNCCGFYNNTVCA
procedure-summary: Inhibition of human CNT2 expressed in African green monkey COS7 cells assessed as reduction of [14C]-inosine uptake by liquid scintillation counting analysis
pIC50: −log10 of the molar value.
readout: pIC50

Recorded results for 2 compounds are shown here.
>  <input-smiles>
CCCOc1cc(CNc2nc3c(N)ncnc3n2[C@@H]2O[C@H](CO)[C@@H](O)[C@H]2O)ccc1-c1ccccc1

>  <reading>
5.28

$$$$
>  <input-smiles>
CC(C)Oc1cc(CNc2nc3c(N)ncnc3n2[C@@H]2O[C@H](CO)[C@@H](O)[C@H]2O)ccc1-c1ccccc1

>  <reading>
4.98

$$$$

1. O=c1[nH]cnc2c1nc(NCc1ccc(-c3ccccc3)c(OCCCCO)c1)n2[C@@H]1O[C@H](CO)[C@@H](O)[C@H]1O
2. COc1cc(CNc2nc3c(N)ncnc3n2[C@@H]2O[C@H](CO)[C@@H](O)[C@H]2O)ccc1-c1ccccc1
stdin: I'm curious whether 1 or 2 has the smaller pIC50 number. Which is it? Reply briefly: the label of your chosen item.
stdout: 1
(1: 4.70, 2: 5.89)

---

procedure-summary: Cmax in Sprague-Dawley rat at 10 mg/kg, po by LC/MS analysis
Assay type: ADME, organism-based
Set-up: dose 10 mg/kg, route oral
experimental-setup: in vivo
readout: Cmax (nM)
Give the value in nM but do not write nM after it.

Recorded result, OCCCCOc1cc(CNc2nc3ccccc3n2[C@@H]2O[C@H](CO)[C@@H](O)[C@H]2O)ccc1-c1ccccc1 , Cmax: 110

---

procedure-summary: AUC (0 to infinity) in Sprague-Dawley rat at 1 mg/kg, iv by LC/MS analysis
Assay type: ADME, organism-based
Set-up: dose 1 mg/kg, route intravenous, time infinity
experimental-setup: in vivo
readout: AUC(0-inf) (µM·h)
Give the value in µM·h but do not write µM·h after it.

Recorded result, OCCCCOc1cc(CNc2nc3ccccc3n2[C@@H]2O[C@H](CO)[C@@H](O)[C@H]2O)ccc1-c1ccccc1 , AUC(0-inf): 5

---

procedure-summary: Half life in Sprague-Dawley rat at 1 mg/kg, iv by LC/MS analysis
Assay type: ADME, organism-based
experimental-setup: in vivo
readout: half-life (h)
Give the value in h but do not write h after it.

Recorded result, OCCCCOc1cc(CNc2nc3ccccc3n2[C@@H]2O[C@H](CO)[C@@H](O)[C@H]2O)ccc1-c1ccccc1 , half-life: 1.7

---

measured-target: Sodium/nucleoside cotransporter 2 (Rattus norvegicus, UniProt Q62773)
Sequence (Q62773 whole entry): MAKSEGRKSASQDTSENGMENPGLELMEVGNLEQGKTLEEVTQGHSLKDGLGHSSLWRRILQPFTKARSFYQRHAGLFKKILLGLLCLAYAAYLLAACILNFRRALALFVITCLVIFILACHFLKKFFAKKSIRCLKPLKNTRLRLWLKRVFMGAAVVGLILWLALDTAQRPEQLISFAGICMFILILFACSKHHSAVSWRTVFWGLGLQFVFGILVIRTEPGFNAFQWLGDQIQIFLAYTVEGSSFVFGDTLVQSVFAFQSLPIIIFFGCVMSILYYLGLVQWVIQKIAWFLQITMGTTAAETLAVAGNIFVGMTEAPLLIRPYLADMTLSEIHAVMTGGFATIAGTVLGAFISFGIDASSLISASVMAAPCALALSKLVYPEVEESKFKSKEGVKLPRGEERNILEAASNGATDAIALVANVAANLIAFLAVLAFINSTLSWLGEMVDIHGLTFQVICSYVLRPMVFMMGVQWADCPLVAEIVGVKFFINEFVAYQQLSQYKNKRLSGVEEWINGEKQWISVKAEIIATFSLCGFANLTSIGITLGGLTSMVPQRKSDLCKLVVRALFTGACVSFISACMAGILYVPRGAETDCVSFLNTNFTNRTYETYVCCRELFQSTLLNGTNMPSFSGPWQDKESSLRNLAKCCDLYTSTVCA
procedure-summary: Inhibition of rat CNT2 expressed in African green monkey COS7 cells assessed as reduction of [14C]-inosine uptake by liquid scintillation counting analysis
pIC50: −log10 of the molar value.
readout: pIC50

A. Nc1ncnc2c1nc(NCc1ccc(-c3ccccc3)c(OCCCCO)c1)n2[C@@H]1O[C@H](CO)[C@@H](O)[C@H]1O
B. Nc1ncnc2c1nc(NCc1ccc(-c3ccccc3)c(OCCCCCO)c1)n2[C@@H]1O[C@H](CO)[C@@H](O)[C@H]1O
stdin: Which one would you say has the larger pIC50 value: A , or B ? Reply briefly: the label of your chosen item.
stdout: A
(A: 4.42, B: 4.22)
